Provenance of the data: patent US12065433B2

biological target: human mAChR M1 (Homo sapiens, UniProt P11229); assay: mAChR M1 cell-based functional assay (calcium mobilization, PAM mode); conditions: CHO-K1 cells stably expressing hM1; calcium flux (Fluo-4); concentration-dependent increase in the EC20 acetylcholine response
Sequence (P11229 whole entry): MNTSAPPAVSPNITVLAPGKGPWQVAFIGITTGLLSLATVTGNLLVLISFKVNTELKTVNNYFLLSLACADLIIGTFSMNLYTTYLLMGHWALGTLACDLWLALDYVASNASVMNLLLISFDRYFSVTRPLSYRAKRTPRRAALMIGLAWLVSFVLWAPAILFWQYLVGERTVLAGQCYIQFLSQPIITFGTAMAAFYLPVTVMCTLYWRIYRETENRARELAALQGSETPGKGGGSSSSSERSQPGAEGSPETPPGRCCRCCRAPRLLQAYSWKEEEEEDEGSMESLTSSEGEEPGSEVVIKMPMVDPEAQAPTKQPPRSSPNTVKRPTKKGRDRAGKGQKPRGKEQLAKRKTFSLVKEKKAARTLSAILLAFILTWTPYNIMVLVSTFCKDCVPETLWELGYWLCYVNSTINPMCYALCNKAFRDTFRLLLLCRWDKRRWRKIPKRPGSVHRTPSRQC
Here the recorded EC50 is given for each entry.
Field format: number, assumed µM, no unit text.

For orientation, consider the following solved cases.
>>> df
                                   compound  quantity_kind  unit_label  experimental_value
0  [2H]C1([2H])Oc2c(C(=O)N[C@H]3CCCC[C@@H]3O)cc(Cc3ccc(-n4cccn4)cc3)c(C)c2O1           EC50          µM                0.21
1  Cn1ccc(-c2ccc(Cc3cc4c(c(C(=O)N[C@H]5CCOC[C@@H]5O)c3)OCO4)cn2)n1           EC50          µM                1.42
2  CC1(C)COCCC1NC(=O)c1cc(Cc2ccc(-n3cccn3)cc2)cc2c1OCO2 (stereo not drawn)           EC50          µM                7.33
3  [2H]C1([2H])Oc2c(C(=O)N[C@H]3CCC[C@@H]3O)cc(Cc3ccc(-n4cccn4)cc3)c(C)c2O1           EC50          µM                   1
4  O=C(N[C@H]1CCCC[C@@H]1O)c1cc(Cc2ccc(-n3cccn3)cc2)cc2c1OCO2           EC50          µM                0.79
5  Cc1c(Cc2ccc(-n3cccn3)cc2)cc(C(=O)N[C@H]2CCOC[C@@H]2O)c2c1OCO2           EC50          µM                0.26
6  O=C(N[C@H]1CC[C@@H]1O)c1cc(Cc2ccc(-n3cccn3)cc2)cc2c1OCO2           EC50          µM                3.67
7  O=C(N[C@H]1CCC[C@@H]1O)c1cc(Cc2ccc(-n3cccn3)cc2)cc2c1OCO2           EC50          µM                2.48

Next up:
API: value(readout= EC50, system= human mAChR M1 (Homo sapiens, UniProt P11229), query= [2H]C1([2H])Oc2c(C(=O)N[C@H]3CCOC[C@@H]3O)cc(Cc3ccc(-n4cccn4)cc3)c(C)c2O1 )
0.044
